Test system: CP265
Test: qHTS profiling for inhibitors of Plasmodium falciparum proliferation (AID 504749); note: nearly all actives have a fitted effect of over 60% in size
Details: P. falciparum in erythrocytes, SYBR Green DNA, 72 h; series mostly up to 28.7 µM
Results filed as inconclusive are left out. The source made the active and inactive calls. Calls come from the whole dose curve; as a rule, active = well fitted inhibition curve with a large enough effect; inconclusive = small, poorly fitted or top-dose-only effect; inactive = flat fitted curve, though single readings scatter.
Labels: Y (active), N (inactive)

{"columns": ["Compound", "Group Label"],
 "data": [
  ["CC[C@H]1OC(=O)[C@H](C)[C@@H](O[C@H]2C[C@@](C)(OC)[C@@H](O)[C@H](C)O2)[C@H](C)[C@@H](O[C@@H]2O[C@H](C)C[C@H](N(C)C)[C@H]2O)[C@](C)(O)C[C@@H](C)CN(C)[C@H](C)[C@@H](O)[C@]1(C)O", "Y"],
  ["O=C(O)c1ccc(NC(=O)[C@H](Cc2ccc(O)cc2)NC(=O)c2ccccc2)cc1", "N"],
  ["CCN(CC)CCOc1ccccc1OC", "N"],
  ["FC(F)OC(Cl)C(F)(F)F (stereo not given)", "N"],
  ["[O]=[Bi][O]C(=O)[O][Bi]=[O]", "N"],
  ["CC(C)=CCC/C(C)=C/CC/C(C)=C/CC/C=C(\\C)CC/C=C(\\C)CCC=C(C)C", "N"],
  ["Oc1cc(O)cc(O)c1", "N"],
  ["[O-][N+](=Nc1ccccc1)c1ccccc1", "N"],
  ["O[C@@H]([C@H](O)[C@H](O)CBr)[C@H](O)CBr", "N"],
  ["CC(=O)Nc1c(I)c(C(=O)O)c(I)c(N(C)C(C)=O)c1I", "N"]
]}

* * *

Molecular target: Voltage-gated inwardly rectifying potassium channel KCNH2 (Homo sapiens) (UniProt Q12809)
Sequence (Q12809 whole entry, looked up): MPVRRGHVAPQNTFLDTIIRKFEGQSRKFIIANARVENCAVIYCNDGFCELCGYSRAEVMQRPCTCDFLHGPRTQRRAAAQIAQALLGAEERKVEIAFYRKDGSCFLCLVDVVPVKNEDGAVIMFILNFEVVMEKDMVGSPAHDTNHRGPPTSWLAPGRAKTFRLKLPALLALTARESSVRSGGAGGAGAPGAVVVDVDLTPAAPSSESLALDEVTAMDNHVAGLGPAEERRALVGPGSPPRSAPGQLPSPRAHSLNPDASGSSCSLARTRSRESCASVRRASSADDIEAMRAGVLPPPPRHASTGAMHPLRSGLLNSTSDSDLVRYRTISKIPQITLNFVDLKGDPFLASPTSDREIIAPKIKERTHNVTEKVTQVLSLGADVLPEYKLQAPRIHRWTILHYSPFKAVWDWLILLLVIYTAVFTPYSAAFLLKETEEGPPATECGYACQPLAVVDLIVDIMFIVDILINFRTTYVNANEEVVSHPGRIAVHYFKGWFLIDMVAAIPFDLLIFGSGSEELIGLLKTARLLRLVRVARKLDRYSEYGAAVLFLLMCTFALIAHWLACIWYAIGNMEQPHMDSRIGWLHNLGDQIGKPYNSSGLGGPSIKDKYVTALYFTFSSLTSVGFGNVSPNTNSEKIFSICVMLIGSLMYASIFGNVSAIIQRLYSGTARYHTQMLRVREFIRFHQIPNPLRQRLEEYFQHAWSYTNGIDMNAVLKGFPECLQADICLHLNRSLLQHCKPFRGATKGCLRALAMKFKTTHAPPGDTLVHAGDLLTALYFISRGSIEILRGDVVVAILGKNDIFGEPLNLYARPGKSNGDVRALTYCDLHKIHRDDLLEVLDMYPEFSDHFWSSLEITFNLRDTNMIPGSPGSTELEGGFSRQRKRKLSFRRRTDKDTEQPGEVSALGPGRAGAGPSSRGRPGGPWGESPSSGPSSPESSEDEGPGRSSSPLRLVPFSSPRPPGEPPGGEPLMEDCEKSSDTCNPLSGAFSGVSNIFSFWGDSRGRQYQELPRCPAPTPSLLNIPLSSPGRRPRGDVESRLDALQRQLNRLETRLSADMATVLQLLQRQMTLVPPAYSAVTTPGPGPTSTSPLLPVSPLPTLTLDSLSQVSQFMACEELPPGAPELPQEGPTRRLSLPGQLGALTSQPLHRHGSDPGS
Assay: qHTS Assay for Small Molecule Inhibitors of the Human hERG Channel Activity (AID 588834);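 note: lower thallium flux fluorescence means stronger hERG block; nearly all actives have a fitted effect of over 50% in size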
Conditions: U2OS BacMam hERG, FluxOR thallium flux fluorescence; series mostly up to 46.1 µM
Inconclusive results are not listed. Activity calls are given as the source filed them. The call rests on the fitted dose curve; in most records, active means well fitted inhibition curve with a large enough effect; inconclusive means small, poorly fitted or top-dose-only effect; inactive means flat fitted curve, though single readings scatter.
Labels: t (active), f (inactive)

{"columns": ["Molecule", "Group Label"],
 "data": [
  ["C[C@@H]1O[C@@H](OC[C@H]2O[C@@H](Oc3c(-c4ccc(OCCO)c(OCCO)c4)oc4cc(OCCO)cc(O)c4c3=O)[C@H](O)[C@@H](O)[C@@H]2O)[C@H](O)[C@H](O)[C@H]1O", "f"],
  ["Nc1nc(=O)n([C@@H]2CS[C@H](CO)O2)cc1F", "f"],
  ["[O]=[Bi][O][Bi]=[O]", "f"],
  ["CC(=O)Nc1ccc(NC(=S)NC(=O)c2ccc(C(C)(C)C)cc2)cc1", "t"],
  ["CC(=O)N[C@@H]1C(O[C@H]2O[C@H](C(=O)O)C(O)[C@H](O)[C@H]2O)[C@H](O)[C@@H](CO)O[C@H]1O[C@@H]1C(C(=O)O)O[C@@H](O[C@H]2[C@H](O)[C@@H](CO)OC(O)[C@@H]2NC(C)=O)[C@H](O)[C@H]1O (stereo not given in full)", "f"],
  ["CCCCCCOC(=O)c1cccnc1", "f"],
  ["CCCc1ccc(C(=O)O)cc1", "f"],
  ["NC(=O)CC[C@@H]1NC(=O)[C@H](Cc2ccccc2)NC(=O)[C@H](Cc2ccc(O)cc2)NC(=O)[C@@H](N)CSSC[C@@H](C(=O)N2CCC[C@H]2C(=O)N[C@@H](CCCN=C(N)N)C(=O)NCC(N)=O)NC(=O)[C@H](CC(N)=O)NC1=O", "f"],
  ["CC(C)C1=CC2=CC[C@@H]3[C@](C)(CCC[C@@]3(C)C(=O)O)[C@H]2CC1", "f"],
  ["CC(C)[C@@H](N)C(=O)O", "f"],
  ["CCC(=O)c1ccc2c(c1)N(CCCN1CCN(CCO)CC1)c1ccccc1S2", "t"],
  ["CC(C)N1CCN(c2ccc(OC[C@H]3CO[C@](Cn4cncn4)(c4ccc(Cl)cc4Cl)O3)cc2)CC1", "t"],
  ["CC(=O)Oc1cc(C(F)(F)F)ccc1C(=O)O", "f"],
  ["CCOC(=O)[C@@H](N)CS", "f"],
  ["CC(C)=CCC/C(C)=C/CC/C(C)=C/CC/C(C)=C/CC1=C(C)C(=O)c2ccccc2C1=O", "f"],
  ["Nc1ncnc2c1ncn2CCOCP(=O)(O)O", "f"],
  ["OCC1(CO)COC(C(Cl)(Cl)Cl)OC1", "f"],
  ["O=C(O)CCCC/C=C(\\c1ccccc1)c1cccnc1", "f"],
  ["CC(=O)NCCCS(=O)(=O)O", "f"],
  ["COC1=C(OC)C(=O)C(C/C=C(\\C)CC/C=C(\\C)CC/C=C(\\C)CC/C=C(\\C)CC/C=C(\\C)CC/C=C(\\C)CC/C=C(\\C)CC/C=C(\\C)CC/C=C(\\C)CCC=C(C)C)=C(C)C1=O", "f"]
]}

Source of measurements: PubChem BioAssay (NCATS)
